Target: dengue type 3 virus (DENV-3), strain H87, virions (dengue type 3 virus, UniProt P27915 281-773; P27915 115-280)
Test: ELISA, virion-coated plate, Fab from ~300 µg/ml
propertyName: ELISA titer of Fab binding

- binder: "chimpanzee Fab 7G4 (Fab, V domains shown) VH: EVQLLESGGGLVQPGGSLTLSCAASGFTFSSYWMHWVRQAPGKGPEWVALIKKDGSEKYYAESVKGRFTISRDNAKNSLYLQMNSLRAEDTAVYYCTRRITTLTVISDAFDIWGQGTMVTVSS VL: ELTQSPSTLSASVGDRVTITCRASQGISSWLAWYQQKPGKAPKFLIYKASSLESGVPSRFSGSGSGTEFTLTISSLQPDDFATYYCQQYGSYPLTFGPGTKVDIKR"
  ELISA titer of Fab binding: "4.01 log10 of reciprocal dilution"
- binder: "chimpanzee Fab 3C1 (Fab, V domains shown) VH: EVQLLESGAEVKKPGGSVKVSCKVSGGTLSSYGISWVRQAPGQGPEWMGVIIPIRGTANYAQKFQGRVTYTADESTSTVYMELSSLRSEDTAVYYCATGRRGRYPTGSFDYWGQGALVTVSS VL: ELQMTQSPSTLSASVGDRVTVTCRASEDLNKWLAWYQQKPGKAPKLLIYKASSLESGVPSRFSGSGSGTEFTLTISSLQPDDFATYYCQQYQSYPYTFGPGTKLEIKR"
  ELISA titer of Fab binding: "1.3 log10 of reciprocal dilution"

Inquiry: Supply reported ELISA titer of Fab binding belonging to this binder: chimpanzee Fab 5H2 (Fab, V domains shown) VH: EVQLLESGPGLVKPSETLSLTCTVSGGSISDFYWSWLRQSPGKGLEWIGYAHSRVSAYYNPSLKSRVTISVDTSKNQLSLRLSAVTAADTALYYCARQGTGTTGVSEDPFDLWGQGTKVIVSL VL: ELQMTQSPSSLSASVGDRVTITCRASQDISIRLNWYQQKPGKAPKLLIYDASTLESGVPSRFSGSGSGTDFTLTISSLQPEDFATYYCQQFNSYPLTFGGGTKVEIKR
Reply text: < 1 log10 of reciprocal dilution
